Protocol summary: 13-week inhalation toxicology study, rat model
Format: in vivo
Test context: rat, in vivo, inhaled or intranasal, 1.3 mg/kg/day, AUC0-24
Readout name: AUC(0-t) (ng·h/mL)
Your answer should be a plain number; it is taken to be in ng·h/mL.

Challenge: Name the recorded AUC(0-t) for Cn1c(=O)n([C@H]2CCCN(C(=O)CC#N)C2)c2nc(-c3cnn4ccccc34)ccc21 .
Response given: 339

----------
Protocol summary: Phase 1 Part 3 plasma pharmacokinetics (moderate to severe asthma)
Format: in vivo, human
Test context: human, plasma, inhaled, 4 mg, 4 mg BID, Day 10, read-out: AUC0-last non-zero Geometric mean
Readout name: AUC(0-t) (ng·h/mL)
Your answer should be a plain number; it is taken to be in ng·h/mL.

Challenge: Name the recorded AUC(0-t) for Cn1c(=O)n([C@H]2CCCN(C(=O)CC#N)C2)c2nc(-c3cnn4ccccc34)ccc21 [Compound I] .
Response given: 393

----------
Protocol summary: 13-week inhalation toxicology study, NHP model
Format: in vivo
Test context: monkey, in vivo, inhaled or intranasal, 0.9 mg/kg/day, NHP, inhaled 0.9 mg/kg/day, Day 1; read-out: AUC0-24
Readout name: AUC(0-t) (ng·h/mL)
Your answer should be a plain number; it is taken to be in ng·h/mL.

Challenge: Name the recorded AUC(0-t) for Cn1c(=O)n([C@H]2CCCN(C(=O)CC#N)C2)c2nc(-c3cnn4ccccc34)ccc21 [Compound I] .
Response given: 203

----------
Protocol summary: Phase 1 Part 2 plasma pharmacokinetics (mild asthma)
Type: in vivo, human
Test context: human, plasma, inhaled, 2 mg, 2 mg QD, Day 10, read-out: AUC0-∞ Geometric mean
Readout name: AUC(0-inf) (ng·h/mL)
Your answer should be a plain number; it is taken to be in ng·h/mL.

Challenge: Name the recorded AUC(0-inf) for Cn1c(=O)n([C@H]2CCCN(C(=O)CC#N)C2)c2nc(-c3cnn4ccccc34)ccc21 .
Response given: 83.9

----------
Protocol summary: Phase 1 Part 2 plasma pharmacokinetics (mild asthma)
Assay type: in vivo, human
Test context: human, plasma, inhaled, 4 mg, 4 mg BID, Day 10, read-out: AUC0-last non-zero Geometric mean
Readout name: AUC(0-t) (ng·h/mL)
Your answer should be a plain number; it is taken to be in ng·h/mL.

Challenge: Name the recorded AUC(0-t) for Cn1c(=O)n([C@H]2CCCN(C(=O)CC#N)C2)c2nc(-c3cnn4ccccc34)ccc21 [Compound I] .
Response given: 278

----------
Protocol summary: Phase 1 Part 2 plasma pharmacokinetics (mild asthma)
Format: in vivo, human
Test context: human, plasma, inhaled, 0.6 mg, 0.6 mg QD, Day 10, read-out: AUC0-last non-zero Mean
Readout name: AUC(0-t) (ng·h/mL)
Your answer should be a plain number; it is taken to be in ng·h/mL.

Challenge: Name the recorded AUC(0-t) for Cn1c(=O)n([C@H]2CCCN(C(=O)CC#N)C2)c2nc(-c3cnn4ccccc34)ccc21 .
Response given: 26.7

----------
Protocol summary: Phase 1 Part 2 plasma pharmacokinetics (mild asthma)
Format: in vivo, human
Test context: human, plasma, inhaled, 4 mg, 4 mg BID, Day 10, read-out: Cmax Geometric mean
Readout name: Cmax (ng/mL)
Your answer should be a plain number; it is taken to be in ng/mL.

Challenge: Name the recorded Cmax for Cn1c(=O)n([C@H]2CCCN(C(=O)CC#N)C2)c2nc(-c3cnn4ccccc34)ccc21 [Compound I] .
Response given: 26.8

----------
Protocol summary: Phase 1 Part 2 plasma pharmacokinetics (mild asthma)
Assay type: in vivo, human
Test context: human, plasma, inhaled, 4 mg, 4 mg BID, Day 10, read-out: AUC0-∞ Geometric mean
Readout name: AUC(0-inf) (ng·h/mL)
Your answer should be a plain number; it is taken to be in ng·h/mL.

Challenge: Name the recorded AUC(0-inf) for Cn1c(=O)n([C@H]2CCCN(C(=O)CC#N)C2)c2nc(-c3cnn4ccccc34)ccc21 [Compound I] .
Response given: 282

----------
Protocol summary: 13-week inhalation toxicology study, NHP model
Type: in vivo
Test context: monkey, in vivo, inhaled or intranasal, 2.7 mg/kg/day, NHP, inhaled 2.7 mg/kg/day, Day 1; read-out: AUC0-24
Readout name: AUC(0-t) (ng·h/mL)
Your answer should be a plain number; it is taken to be in ng·h/mL.

Challenge: Name the recorded AUC(0-t) for Cn1c(=O)n([C@H]2CCCN(C(=O)CC#N)C2)c2nc(-c3cnn4ccccc34)ccc21 .
Response given: 408

----------
Protocol summary: Phase 1 Part 2 plasma pharmacokinetics (mild asthma)
Assay type: in vivo, human
Test context: human, plasma, inhaled, 8 mg, 8 mg BID, Day 10, read-out: AUC0-12 hours Geometric mean
Description: Day 10 pharmacokinetic parameters for Parts 2 and 3 of Phase I are summarized below in Table 28. Part 2 involved the administration of 4 different dose regimens, to subjects with mild asthma naïve to ICS therapy, over a 10-day period. Each separate cohort comprised 6 subjects receiving active treatment with 2 receiving matching placebo. Blood samples were collected to enable the measurement of Compound I concentrations in plasma. […]
Readout name: AUC0-12h (ng·h/mL)
Your answer should be a plain number; it is taken to be in ng·h/mL.

Challenge: Name the recorded AUC0-12h for Cn1c(=O)n([C@H]2CCCN(C(=O)CC#N)C2)c2nc(-c3cnn4ccccc34)ccc21 .
Response given: 418

----------
Protocol summary: Phase 1 Part 3 plasma pharmacokinetics (moderate to severe asthma)
Format: in vivo, human
Test context: human, plasma, inhaled, 4 mg, 4 mg BID, Day 10, read-out: Cmax Geometric mean
Readout name: Cmax (ng/mL)
Your answer should be a plain number; it is taken to be in ng/mL.

Challenge: Name the recorded Cmax for Cn1c(=O)n([C@H]2CCCN(C(=O)CC#N)C2)c2nc(-c3cnn4ccccc34)ccc21 [Compound I] .
Response given: 35

----------
Protocol summary: Phase 1 Part 2 plasma pharmacokinetics (mild asthma)
Format: in vivo, human
Test context: human, plasma, inhaled, 2 mg, 2 mg QD, Day 10, read-out: AUC0-24 hours Mean
Readout name: AUC(0-t) (ng·h/mL)
Your answer should be a plain number; it is taken to be in ng·h/mL.

Challenge: Name the recorded AUC(0-t) for Cn1c(=O)n([C@H]2CCCN(C(=O)CC#N)C2)c2nc(-c3cnn4ccccc34)ccc21 [Compound I] .
Response given: 76.4

----------
Protocol summary: Phase 1 Part 2 plasma pharmacokinetics (mild asthma)
Assay type: in vivo, human
Test context: human, plasma, inhaled, 0.6 mg, 0.6 mg QD, Day 10, read-out: AUCover dosing interval Mean
Readout name: AUC (ng·h/mL)
Your answer should be a plain number; it is taken to be in ng·h/mL.

Challenge: Name the recorded AUC for Cn1c(=O)n([C@H]2CCCN(C(=O)CC#N)C2)c2nc(-c3cnn4ccccc34)ccc21 .
Response given: 22.5

----------
Protocol summary: Phase 1 Part 2 plasma pharmacokinetics (mild asthma)
Type: in vivo, human
Test context: human, plasma, inhaled, 0.6 mg, 0.6 mg QD, Day 10, read-out: AUC0-last non-zero Geometric mean
Readout name: AUC(0-t) (ng·h/mL)
Your answer should be a plain number; it is taken to be in ng·h/mL.

Challenge: Name the recorded AUC(0-t) for Cn1c(=O)n([C@H]2CCCN(C(=O)CC#N)C2)c2nc(-c3cnn4ccccc34)ccc21 .
Response given: 23.4

----------
Protocol summary: Phase 1 Part 3 plasma pharmacokinetics (moderate to severe asthma)
Format: in vivo, human
Test context: human, plasma, inhaled, 4 mg, 4 mg BID, Day 10, read-out: AUC0-24 hours Mean
Method: Part 3 involved the administration of a single dose regimen (4 mg BID), to subjects (17 active:6 placebo) with moderate to severe asthma treated with background ISC/LABA therapy, over a 10-day period. Blood samples were collected to enable the measurement of KN-002 concentrations in plasma. The resultant data was used to determine the pharmacokinetic parameters at Day 10 representing the Day on which the final dose was received.
Readout name: AUC(0-t) (ng·h/mL)
Your answer should be a plain number; it is taken to be in ng·h/mL.

Challenge: Name the recorded AUC(0-t) for Cn1c(=O)n([C@H]2CCCN(C(=O)CC#N)C2)c2nc(-c3cnn4ccccc34)ccc21 [Compound I] .
Response given: 365

----------
Protocol summary: Phase 1 Part 2 plasma pharmacokinetics (mild asthma)
Assay type: in vivo, human
Test context: human, plasma, inhaled, 8 mg, 8 mg BID, Day 10, read-out: AUCover dosing interval Geometric mean
Readout name: AUC (ng·h/mL)
Your answer should be a plain number; it is taken to be in ng·h/mL.

Challenge: Name the recorded AUC for Cn1c(=O)n([C@H]2CCCN(C(=O)CC#N)C2)c2nc(-c3cnn4ccccc34)ccc21 [Compound I] .
Response given: 418

Data origin, for the record: patent US20240261224A1
